FYI, the data here is from the supplement of paper PMC4862054.

I'd be grateful if you could share measured normalised response for these entries.
- Tested on: HCC1599
- assay.summary: normalised response (% of control), CellTiter-Glo; higher = more viable cells (100 = DMSO, 0 = benzethonium chloride kill control)
- study.conditions: incubation time: 72 h
One number for each entry, in %.

Nc1nc(F)nc2c1ncn2[C@@H]1O[C@H](CO)[C@@H](O)[C@@H]1O [Fludarabine] (1000 nM) = 108
Nc1ncn([C@H]2C[C@H](O)[C@@H](CO)O2)c(=O)n1 [Decitabine] (1 nM) = 99.7
Nc1nc2[nH]cc(CCc3ccc(C(=O)N[C@@H](CCC(=O)O)C(=O)O)cc3)c2c(=O)[nH]1 [Pemetrexed] (10 nM) = 88.7
CC[C@H](C)C(=O)O[C@H]1C[C@H](O)C=C2C=C[C@H](C)[C@H](CC[C@@H](O)C[C@@H](O)CC(=O)O)[C@H]21 [Pravastatin] (10 nM) = 88.5
Nc1ccccc1NC(=O)c1ccc(CNC(=O)OCc2cccnc2)cc1 [Entinostat] (1 nM) = 95.6
C=CC(=O)Nc1cc2c(Nc3ccc(F)c(Cl)c3)ncnc2cc1OCCCN1CCOCC1 [Canertinib] (1 nM) = 93.3

Now consider a different molecule.
Prompt: Under HCC1599, report normalised response for Nc1nc(F)nc2c1ncn2[C@@H]1O[C@H](CO)[C@@H](O)[C@@H]1O [Fludarabine] (1 nM)
Response: 102
